test: Partition coefficient logD7.4 (n-octanol/PBS); format: physicochemical; settings: n-octanol/PBS pH 7.4, mean ± SD
In this section we review reported logD values for a set of compounds.

compound: Cc1ccc(-n2nccn2)c(C(=O)N2CCCN(c3nc4ccc([18F])cc4s3)CC2)c1 [[^18F]1c]
logD: 2.28

compound: CC[C@H](C)[C@H]1CN(c2nc3ccc([18F])cc3s2)CCCN1C(=O)c1cc(C)ccc1-n1nccn1 [[^18F]1f]
logD: 2.37

----------
biological target: human OX1R (Homo sapiens, UniProt O43613); construct: host or cells: HEK293T; assay: Radioligand displacement binding, human OX1R (HEK293T membranes); settings: Ki for OX2R divided by Ki for OX1R
Sequence (O43613 whole entry): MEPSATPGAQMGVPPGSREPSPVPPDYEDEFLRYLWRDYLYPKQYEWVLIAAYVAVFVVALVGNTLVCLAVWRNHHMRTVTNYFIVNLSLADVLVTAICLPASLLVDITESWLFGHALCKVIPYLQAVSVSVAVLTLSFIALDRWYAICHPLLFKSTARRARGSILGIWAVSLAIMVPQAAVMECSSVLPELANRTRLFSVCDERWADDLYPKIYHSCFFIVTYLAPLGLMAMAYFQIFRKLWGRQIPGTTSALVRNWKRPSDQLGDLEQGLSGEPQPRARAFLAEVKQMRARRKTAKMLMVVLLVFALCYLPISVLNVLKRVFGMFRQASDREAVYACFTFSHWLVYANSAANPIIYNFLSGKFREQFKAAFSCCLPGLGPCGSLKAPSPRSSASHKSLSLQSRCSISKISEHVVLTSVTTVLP

sample smiles: Cc1ccc(-n2nccn2)c(C(=O)N2CCCN(c3nc4cc(F)ccc4o3)CC2)c1
assayed target: human OX1R (Homo sapiens, UniProt O43613)
OX1R selectivity Ki(hOX2R)/Ki(hOX1R): 1.0

sample smiles: Cc1ccc(-n2nccn2)c(C(=O)N2CCCN(c3cnc4cc(F)ccc4n3)CC2)c1
assayed target: human OX1R (Homo sapiens, UniProt O43613)
OX1R selectivity Ki(hOX2R)/Ki(hOX1R): 0.7

sample smiles: CC[C@H](C)[C@H]1CN(c2nc3cc(F)ccc3o2)CCCN1C(=O)c1cc(C)ccc1-n1nccn1
assayed target: human OX1R (Homo sapiens, UniProt O43613)
OX1R selectivity Ki(hOX2R)/Ki(hOX1R): 77

sample smiles: Cc1ccc(-n2nccn2)c(C(=O)N2CCCN(c3nc4cc(F)ccc4s3)CC2)c1
assayed target: human OX1R (Homo sapiens, UniProt O43613)
OX1R selectivity Ki(hOX2R)/Ki(hOX1R): 1.3

sample smiles: Cc1ccc(-n2nccn2)c(C(=O)N2CCCN(c3nc4ccc(F)cc4s3)CC2)c1
assayed target: human OX1R (Homo sapiens, UniProt O43613)
OX1R selectivity Ki(hOX2R)/Ki(hOX1R): 1.2

sample smiles: CC[C@H](C)[C@H]1CN(c2nc3ccc(F)cc3s2)CCCN1C(=O)c1cc(C)ccc1-n1nccn1
assayed target: human OX1R (Homo sapiens, UniProt O43613)
OX1R selectivity Ki(hOX2R)/Ki(hOX1R): 77

----------
experiment: Plasma protein binding (MicroSpin G-50 columns); format: in vitro ADME; details: human plasma, 37 °C, read-out: plasma protein binding (PPB) (converted)
In this section we review reported fraction unbound at 10 min values for a set of compounds.

compound: CC[C@H](C)[C@H]1CN(c2nc3ccc([18F])cc3s2)CCCN1C(=O)c1cc(C)ccc1-n1nccn1 [[^18F]1f]
fraction unbound at 10 min: 0.23
--
compound: Cc1ccc(-n2nccn2)c(C(=O)N2CCCN(c3nc4ccc([18F])cc4s3)CC2)c1 [[^18F]1c]
fraction unbound at 10 min: 0.34

----------
In this section we review reported Ki values for a set of compounds.
Biological target: human OX2R (Homo sapiens, UniProt O43614)
Construct: host or cells: HEK293T
Sequence (O43614 1-444): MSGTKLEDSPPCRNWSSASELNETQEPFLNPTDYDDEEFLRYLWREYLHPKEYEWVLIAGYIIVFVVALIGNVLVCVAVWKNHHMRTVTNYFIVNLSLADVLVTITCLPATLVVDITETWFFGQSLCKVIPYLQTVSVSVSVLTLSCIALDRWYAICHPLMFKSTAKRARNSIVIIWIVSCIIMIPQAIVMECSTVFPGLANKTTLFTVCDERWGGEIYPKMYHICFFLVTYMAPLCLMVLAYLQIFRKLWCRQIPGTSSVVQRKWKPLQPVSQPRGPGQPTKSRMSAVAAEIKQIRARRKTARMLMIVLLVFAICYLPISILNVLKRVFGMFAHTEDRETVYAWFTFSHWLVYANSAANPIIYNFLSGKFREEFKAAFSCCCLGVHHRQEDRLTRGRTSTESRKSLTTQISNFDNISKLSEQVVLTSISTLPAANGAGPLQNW
Assay: Radioligand displacement binding, human OX2R (HEK293T membranes)
Settings: mean ± SEM, at least three experiments in triplicate; HEK293T homogenates, radioligand [^3H]EMPA; read-out: Ki values (nM ± SEM) hOX2R
Description: In comparison with the lead JH112, receptor binding affinities of the test compounds 1a–f have been determined by radioligand displacement studies, as described previously, applying membranes of HEK293T cells transiently expressing the human OX1R or OX2R (Table 1). Binding affinities to the human orexin receptor subtypes OX1R and OX2R were determined as reported. […] Non-specific binding was determined with 10 µM of SB674042 or EMPA. […]

compound: CC[C@H](C)[C@H]1CN(c2nc3ccc(F)cc3s2)CCCN1C(=O)c1cc(C)ccc1-n1nccn1 [1f]
Ki, nM: 53

compound: Cc1ccc(-n2nccn2)c(C(=O)N2CCCN(c3nc4cc(F)ccc4s3)CC2)c1 [1b]
Ki, nM: 2.4

compound: CC[C@H](C)[C@H]1CN(c2nc3cc(F)ccc3o2)CCCN1C(=O)c1cc(C)ccc1-n1nccn1 [1e]
Ki, nM: 92

compound: Cc1ccc(-n2nccn2)c(C(=O)N2CCCN(c3nc4cc(F)ccc4o3)CC2)c1 [1a]
Ki, nM: 2.5
